Data origin, for the record: patent US20130230511A1

# Test system: NSCLC cell line H23
# experimentalDetails: MTS assay of in vitro resistance to cisplatin and carboplatin, with KDR siRNA knockdown
# Format: cell-based
# conditions: untransfected (non-transfected) H23 cells; MTS assay, 72 h drug exposure
resultType: IC50 (µM)
Give a bare numeral; the unit µM is implied.

1) N.N.O=C([O-])C1(C(=O)[O-])CCC1.[Pt+2]; 97

With those in mind, consider the next compound.
Exercise: Given the compound N.N.[Cl][Pt][Cl] [cisplatin] , what is its reported IC50?
Solution: 97.9

###

pIC50 overview
# Tested on: NSCLC cell line H23
# experimentalDetails: MTS assay of in vitro resistance to cisplatin and carboplatin, with KDR siRNA knockdown
# Format: cell-based
# conditions: siKDR knockdown H23 cells; MTS assay, 72 h drug exposure
The meaning of pIC50 here: minus log10 of the concentration in molar units.

1. N.N.[Cl][Pt][Cl] [cisplatin]; 4.28

Exercise: Given the compound `N.N.O=C([O-])C1(C(=O)[O-])CCC1.[Pt+2]` , what is its reported pIC50?
Solution: 4.55
